assayProtocol: clinical
runConditions: human, in vivo
valueKind: CL renal (mL/min/kg)
Value expressed in mL/min/kg; do not type the unit.

Nc1ncn([C@H]2C[C@H](O)[C@@H](CO)O2)c(=O)n1	1.3

q: Can you share its CL renal? I mean this molecule: O=C(O)CCCc1ccc(N(CCCl)CCCl)cc1
a: 0.03

q: So what does the record say about CL renal for CCO[C@@H](Cc1ccc(OCCc2ccc(OS(C)(=O)=O)cc2)cc1)C(=O)O ?
a: 0.01

q: Which CL renal value is on record for C[C@@H]([C@@H](O)c1ccc(O)cc1)N1CCC(O)(c2ccccc2)CC1 ?
a: 1.92

q: Which CL renal value belongs to CCCCN1CCCCC1C(=O)Nc1c(C)cccc1C (stereo unspecified) ?
a: 0.09

q: Give the measured CL renal of CC(C)NCC(O)COc1cccc2ccccc12 (stereo unspecified) .
a: 1.2

----------
This listing pairs compounds with measured CL renal.
assayProtocol: clinical
runConditions: human, in vivo
// note: answer is a bare numeric in mL/min/kg

Would you please look over these solved cases?
COCC(=O)Nc1c(I)c(C(=O)NCC(O)CO)c(I)c(C(=O)N(C)CC(O)CO)c1I (stereo unspecified) [IOPROMIDE]	1.37
Cc1ccnc2c1NC(=O)c1cccnc1N2C1CC1	0.01
CN[C@@H]1[C@@H](O)[C@@H](O[C@@H]2[C@@H](O)[C@H](O[C@H]3OC(CN)=CC[C@H]3N)[C@@H](N)C[C@H]2N)OC[C@]1(C)O	0.76
O.O=P(O)(O)C(O)(Cn1ccnc1)P(=O)(O)O	0.79
CNCC[C@@H](Oc1ccccc1C)c1ccccc1	0.28
Cc1onc(-c2c(Cl)cccc2Cl)c1C(=O)N[C@@H]1C(=O)N2[C@@H]1SC(C)(C)[C@@H]2C(=O)O	1.2
CC(C(=O)O)c1ccc(C(=O)c2cccs2)cc1 (stereo unspecified)	0.04
CC(C)NCC(O)COc1ccc(COCCOC(C)C)cc1 (stereo unspecified)	2.28
Nc1nc(O)c2ncn(COC(CO)CO)c2n1	4.14
CC(=O)Nc1nnc(S(N)(=O)=O)s1 [ACETAZOLAMIDE]	0.64

q: Any idea what its CL renal is? The compound is CC1=C(C(=O)O)N2C(=O)[C@@H](NC(=O)[C@H](N)C3=CCC=CC3)[C@H]2SC1
a: 3.14

q: // query CL renal value for entry CC(C)(C)NC(=O)[C@H]1CC[C@H]2[C@@H]3CC[C@H]4NC(=O)C=C[C@]4(C)[C@H]3CC[C@]12C [FINASTERIDE]
a: 0.02

q: Please give the measured CL renal for this compound: OC(Cn1cncn1)(Cn1cncn1)c1ccc(F)cc1F
a: 0.23

q: Given the compound CC1(C)C[C@@H]1C(=O)N/C(=C\CCCCSC[C@H](N)C(=O)O)C(=O)O , what is its reported CL renal?
a: 0.41

q: Entry NS(=O)(=O)c1cc(C2(O)NC(=O)c3ccccc32)ccc1Cl (stereo unspecified) has what CL renal?
a: 0.98

q: Value lookup for CL renal; key = CC1(C)S[C@@H]2[C@H](NC(=O)Cc3ccccc3)C(=O)N2[C@H]1C(=O)O
a: 5

q: GET /values?readout=CL renal&item= CCC(CC)O[C@@H]1C=C(C(=O)O)C[C@H](N)[C@H]1NC(C)=O [OSELTAMIVIR CARBOXYLATE]
a: 4.46

q: Consider the compound CCCCNc1cc(C(=O)O)cc(S(N)(=O)=O)c1Oc1ccccc1 [BUMETANIDE] and give its measured CL renal.
a: 0.85

q: Record request: CL renal value, item CN[C@H](CC(C)C)C(=O)N[C@H]1C(=O)N[C@@H](CC(N)=O)C(=O)N[C@H]2C(=O)N[C@H]3C(=O)N[C@H](C(=O)N[C@H](C(=O)O)c4cc(O)cc(O)c4-c4cc3ccc4O)[C@H](O)c3ccc(c(Cl)c3)Oc3cc2cc(c3O[C@@H]2O[C@H](CO)[C@@H](O)[C@H](O)[C@H]2O[C@H]2C[C@](C)(N)[C@H](O)[C@H](C)O2)Oc2ccc(cc2Cl)[C@H]1O
a: 1.03

q: Suppose we examine the compound CCCCCN(CCCOC)C(=O)[C@@H](CCC(=O)O)NC(=O)c1ccc(Cl)c(Cl)c1 [DEXLOXIGLUMIDE] ; what CL renal value has been reported?
a: 0.41

q: Given the entry CO[C@H]1/C=C/O[C@@]2(C)Oc3c(C)c(O)c4c(c3C2=O)C2=NC3(CCN(CC(C)C)CC3)NC2=C(NC(=O)/C(C)=C\C=C\[C@H](C)[C@H](O)[C@@H](C)[C@@H](O)[C@@H](C)[C@H](OC(C)=O)[C@@H]1C)C4=O , report its measured CL renal.
a: 0.4

q: Find the recorded CL renal belonging to Clc1ccc2nsnc2c1NC1=NCCN1 and report it.
a: 0.33
